- Tested on: L1210 leukemia ip in BDF1 mice, survival T/C
- Assay Name: NCI In Vivo Anticancer Drug Screen. Data for tumor model L1210 Leukemia (intraperitoneal) in B6D2F1 (BDF1) mice
- Experimental Parameters: endpoint: mean survival time; dose: 100.0 mg/kg/injection; schedule: Q01DX001 (ip); vehicle: saline; higher = longer survival
Inconclusive results and toxic doses are left out.
Attribute Measured: T/C

Value of T/C reported for the compound `Cc1ncc(CCO)c(CO)c1O` is 104 % of control

Value of T/C reported for the compound `CNc1nc(Cl)cc2nc(Cl)cn12` is 94 % of control

Value of T/C reported for the compound `CC(=O)Oc1ccc(OC(C)=O)c([N+](=O)[O-])c1` is 103 % of control

Value of T/C reported for the compound `CC(C)NNC(=O)c1cccnc1` is 95 % of control

Value of T/C reported for the compound `Cc1ccnc(NS(=O)(=O)c2ccc(N=Nc3c(N)[nH]c(=O)[nH]c3=O)cc2)n1` is 100 % of control

Value of T/C reported for the compound CCOC(=O)C(CCP(=O)(OCC)OCC)P(=O)(OCC)OCC (configuration not stated) is 101 % of control

Value of T/C reported for the compound CCCC1(c2ccccc2)NC(=O)NC1=O (configuration not stated) is 96 % of control
